B1: library; numbered along this chain (parent)
chain: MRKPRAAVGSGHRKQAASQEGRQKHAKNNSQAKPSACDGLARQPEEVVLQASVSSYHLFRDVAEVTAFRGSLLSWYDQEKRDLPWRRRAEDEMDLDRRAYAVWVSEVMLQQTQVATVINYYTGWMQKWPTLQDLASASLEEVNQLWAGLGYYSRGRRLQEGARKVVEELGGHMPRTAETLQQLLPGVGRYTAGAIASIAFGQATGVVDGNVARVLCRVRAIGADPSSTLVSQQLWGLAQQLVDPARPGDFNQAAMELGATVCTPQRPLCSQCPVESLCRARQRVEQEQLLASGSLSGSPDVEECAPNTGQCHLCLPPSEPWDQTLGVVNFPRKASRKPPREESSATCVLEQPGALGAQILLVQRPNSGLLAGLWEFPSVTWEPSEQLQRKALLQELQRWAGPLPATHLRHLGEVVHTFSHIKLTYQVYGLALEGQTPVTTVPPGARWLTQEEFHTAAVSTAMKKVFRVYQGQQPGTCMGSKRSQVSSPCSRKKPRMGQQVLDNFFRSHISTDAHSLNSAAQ

- Variants of: B1
- experiment: 8OG:A repair function score (normalized; synonymous = 0, nonsense = -1) (normalized log-likelihood score); higher = more repair activity (WT-like);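 note: cells sorted at 72 h after reporter transfection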
- assay-context: with 8OG:A DNA repair reporter (GFP) in HEK-293 MUTYH KO cells
Labels assigned by 8OG:A repair function score range: lower: < -0.3; middle: ≥ -0.3 and < -0.03; upper: ≥ -0.03

mutation | discrete-label
V206K | lower
S344F | upper
L277N | middle
T130L | lower
R88M | upper
S378W | lower
R213N | lower
P306V | upper
G150T | lower
L139H | upper

Ask: Entry S226G belongs to which category?
Reply: upper

Ask: The entry to classify is A305P ; which class holds it?
Reply: middle

Ask: Note: place this variant into its band. Item: V48R
Reply: upper

Ask: Which 8OG:A repair function score category applies to T439H here?
Reply: upper

Ask: Please classify: A245P
Reply: lower

Ask: Sort into band: S483R
Reply: upper

Ask: Place this variant in its band: A354N
Reply: middle

Ask: GET /class?item= A199W
Reply: lower

Ask: Into which bin does this variant go? M478I
Reply: middle

Ask: Lab log: L215G — assign 8OG:A repair function score category
Reply: lower

Ask: Textbook exercise: identify the category of the variant given here, Q111G , according to its measured value.
Reply: lower

Ask: Exercise: read the entry R157Q and state which class it falls under.
Reply: middle
